MEASURED_ON: RARβ (Homo sapiens, UniProt P10826)
RUN_DESCRIPTION: Ligand binding assay
RUN_CONDITIONS: read-out: Kd (nanomolar) RARβ
MEASURE: Kd (nM)

* Cc1nc(C2=CCC(C)(C)c3ccc(C#Cc4ccc(C(=O)O)cc4)cc32)sc1C | 89
* Cc1ccc(C2=CCC(C)(C)c3ccc(C#Cc4ccc(C(=O)O)cc4)cc32)cn1 | 11
* Cc1cnc(C2=CCC(C)(C)c3ccc(C#Cc4ccc(C(=O)O)cc4)cc32)s1 | 141
* CC1(C)CC=C(c2cccnc2)c2cc(C#Cc3ccc(C(=O)O)cc3)ccc21 | 31
* CC1(C)CC=C(c2ccccn2)c2cc(C#Cc3ccc(C(=O)O)cc3)ccc21 | 210
* Cc1ccc(C2=CCC(C)(C)c3ccc(C#Cc4ccc(C(=O)O)cc4)cc32)cc1 | 1.9
* Cc1ccc(C2=CCC(C)(C)c3ccc(N=Nc4ccc(C(=O)O)cc4)cc32)cc1 [Compound 46b] | 3.7
* Cc1ccc(C2=CCC(C)(C)c3ccc(C(=S)Nc4ccc(C(=O)O)c(F)c4)cc32)cc1 | 3220

====

Parameter: Emax. Scope: all listed entries.
MEASURED_ON: RXRγ (Mus musculus, UniProt P28705)
Construct: expressed in transfected cells; host or cells: CV1 cells
Sequence (P28705 whole entry): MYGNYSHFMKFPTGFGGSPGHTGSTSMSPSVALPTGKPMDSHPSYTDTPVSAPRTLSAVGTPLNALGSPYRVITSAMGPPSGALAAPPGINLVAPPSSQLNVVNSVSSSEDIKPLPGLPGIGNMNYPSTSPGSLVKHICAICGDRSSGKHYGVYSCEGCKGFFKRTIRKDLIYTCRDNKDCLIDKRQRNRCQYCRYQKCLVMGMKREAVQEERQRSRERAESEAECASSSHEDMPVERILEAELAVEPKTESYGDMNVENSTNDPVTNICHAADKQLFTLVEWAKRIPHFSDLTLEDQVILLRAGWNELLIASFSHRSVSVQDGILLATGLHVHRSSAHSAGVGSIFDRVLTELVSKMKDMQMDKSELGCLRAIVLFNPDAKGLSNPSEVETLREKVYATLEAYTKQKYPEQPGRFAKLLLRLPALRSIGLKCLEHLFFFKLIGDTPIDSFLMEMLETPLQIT
RUN_DESCRIPTION: Holoreceptor transactivation assay
Type: cell-based
RUN_CONDITIONS: relative to all trans retinoic acid; read-out: Transactivation Assay Efficacy (% of RA activity) RXRγ
MEASURE: Emax (%)

• Cc1ccccc1C1=CCC(C)(C)c2ccc(C#Cc3ccc(C(=O)O)cc3)cc21 = 4
• Cc1ccc(C2=CCC(C)(C)c3ccc(/C=C/c4ccc(C(=O)O)cc4)cc32)cc1 = 0
• Cc1nc(C2=CCC(C)(C)c3ccc(C#Cc4ccc(C(=O)O)cc4)cc32)sc1C = 2
• Cc1ccc(C2=CCC(C)(C)c3ccc(N=Nc4ccc(C(=O)O)cc4)cc32)cc1 [Compound 46b] = 4
• CC1(C)CC=C(c2ccccc2)c2ccc(C(=O)C=Cc3ccc(C(=O)O)cc3)cc21 = 2
• Cc1ccc(C2=CCC(C)(C)c3ccc(C#Cc4ccc(C(=O)O)cc4)cc32)s1 = 3
• CC(C)(C)c1ccc(C2=CCC(C)(C)c3ccc(C#Cc4ccc(C(=O)O)cc4)cc32)cc1 = 3
• CC1(C)CC=C(c2ccc(C(F)(F)F)cc2)c2cc(C#Cc3ccc(C(=O)O)cc3)ccc21 = 4
• CC1(C)CC=C(c2cccc(O)c2)c2cc(C#Cc3ccc(C(=O)O)cc3)ccc21 = 3
• Cc1ccc(C2=CCC(C)(C)c3cc(C(=O)C=Cc4ccc(C(=O)O)cc4)ccc32)cc1 = 3
• Cc1ccc(C2=CCC(C)(C)c3ccc(C(=O)Oc4ccc(C(=O)O)cc4)cc32)cc1 = 1
• Cc1ccc(C2=CCC(C)(C)c3ccc(C#Cc4ccc(C(=O)O)cc4)cc32)cn1 = 1
• Cc1ccc(C2=CCC(C)(C)c3ccc(C#Cc4ccc(C(=O)O)cc4)cc32)cc1 = 3
• Cc1cc(C)cc(C2=CCC(C)(C)c3ccc(C#Cc4ccc(C(=O)O)cc4)cc32)c1 = 3
• CCc1ccc(C2=CCC(C)(C)c3ccc(C#Cc4ccc(C(=O)O)cc4)cc32)cc1 = 3
• Cc1ccc(C2=CCC(C)(C)c3ccc(C(=O)Nc4ccc(C(=O)O)c(F)c4)cc32)cc1 = 3

====

MEASURED_ON: RXRα (Homo sapiens)
Construct: expressed in transfected cells; host or cells: CV1 cells
Sequence (P19793 1-462): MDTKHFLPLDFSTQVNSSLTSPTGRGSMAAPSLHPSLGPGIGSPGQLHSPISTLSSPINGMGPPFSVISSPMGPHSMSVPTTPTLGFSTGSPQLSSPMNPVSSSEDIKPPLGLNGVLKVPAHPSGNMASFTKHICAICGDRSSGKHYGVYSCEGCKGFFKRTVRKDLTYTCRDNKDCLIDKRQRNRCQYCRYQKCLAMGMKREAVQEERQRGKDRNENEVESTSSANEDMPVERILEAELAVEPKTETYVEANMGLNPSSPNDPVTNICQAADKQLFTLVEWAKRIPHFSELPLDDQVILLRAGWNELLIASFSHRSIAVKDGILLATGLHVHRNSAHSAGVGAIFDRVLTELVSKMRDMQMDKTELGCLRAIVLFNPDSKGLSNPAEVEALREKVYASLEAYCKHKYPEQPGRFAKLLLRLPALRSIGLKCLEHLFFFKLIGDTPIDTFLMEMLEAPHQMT
RUN_DESCRIPTION: Holoreceptor transactivation assay
Type: cell-based
RUN_CONDITIONS: relative to all trans retinoic acid; read-out: Transactivation Assay Efficacy (% of RA activity) RXRα
Description: A holoreceptor transactivation assay and a ligand binding assay which measure the antagonist/agonist like activity of the compounds of the invention, or their ability to bind to the several retinoid receptor subtypes, respectively, are described in published PCT Application No. WO93/11755 (particularly on pages 30-33 and 37-41) published on Jun. 24, 1993, the specification of which is also incorporated herein by reference. […]
MEASURE: Emax

* CC(C)(C)c1ccc(C2=CCC(C)(C)c3ccc(C#Cc4ccc(C(=O)O)cc4)cc32)cc1 [Compound 61] | 1%
* CC1(C)CC=C(c2cccc(O)c2)c2cc(C#Cc3ccc(C(=O)O)cc3)ccc21 [Compound 28] | 2%
* Cc1nc(C2=CCC(C)(C)c3ccc(C#Cc4ccc(C(=O)O)cc4)cc32)sc1C [Compound 32] | 1%
* Cc1ccc(C2=CCC(C)(C)c3ccc(C#Cc4ccc(C(=O)O)cc4)cc32)cc1 [Compound 60] | 3%
* Cc1ccc(C2=CCC(C)(C)c3ccc(C(=O)Oc4ccc(C(=O)O)cc4)cc32)cc1 [Compound 39] | 2%
* CC1(C)CC=C(c2ccccc2)c2ccc(C(=O)C=Cc3ccc(C(=O)O)cc3)cc21 [Compound 103] | 0%
* Cc1ccc(C2=CCC(C)(C)c3ccc(/C=C/c4ccc(C(=O)O)cc4)cc32)cc1 [Compound 45] | 3%
* Cc1cccc(C2=CCC(C)(C)c3ccc(C#Cc4ccc(C(=O)O)cc4)cc32)c1 [Compound 20] | 4%

====

Parameter: pKd. Scope: all listed entries.
MEASURED_ON: UniProt P10826
Sequence (P10826 1-455): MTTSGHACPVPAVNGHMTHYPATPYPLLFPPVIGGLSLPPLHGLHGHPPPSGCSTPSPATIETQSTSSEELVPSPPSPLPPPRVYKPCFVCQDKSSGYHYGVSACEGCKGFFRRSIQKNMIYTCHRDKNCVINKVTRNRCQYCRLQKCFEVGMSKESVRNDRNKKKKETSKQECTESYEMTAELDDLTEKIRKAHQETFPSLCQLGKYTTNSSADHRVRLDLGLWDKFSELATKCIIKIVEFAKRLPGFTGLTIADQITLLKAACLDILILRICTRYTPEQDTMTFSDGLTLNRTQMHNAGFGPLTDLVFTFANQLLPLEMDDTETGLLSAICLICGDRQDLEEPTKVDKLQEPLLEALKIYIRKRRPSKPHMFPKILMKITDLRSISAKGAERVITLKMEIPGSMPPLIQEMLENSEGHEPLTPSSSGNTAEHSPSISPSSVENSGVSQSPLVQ
RUN_DESCRIPTION: Ligand binding assay
RUN_CONDITIONS: read-out: Kd (nanomolar) RARβ
pKd: −log10 of the molar value.
MEASURE: pKd

• Cc1ccccc1C1=CCC(C)(C)c2ccc(C#Cc3ccc(C(=O)O)cc3)cc21 [Compound 27] = 7.85
• Cc1cccc(C2=CCC(C)(C)c3ccc(C#Cc4ccc(C(=O)O)cc4)cc32)c1 [Compound 20] = 7.66
• Cc1ccc(C2=CCC(C)(C)c3ccc(C(=O)Nc4ccc(C(=O)O)c(F)c4)cc32)cc1 [Compound 41] = 6.31

====

MEASURED_ON: RARβ (Homo sapiens, UniProt P10826)
RUN_DESCRIPTION: Ligand binding assay
RUN_CONDITIONS: read-out: Kd (nanomolar) RARβ
Define the label as rule met when Kd is strictly less than 20 nM and as rule not met in all remaining cases.

- CC1(C)CC=C(c2ccccc2)c2ccc(C(=O)C=Cc3ccc(C(=O)O)cc3)cc21 [Compound 103]: rule not met
- Cc1ccc(C2=CCC(C)(C)c3ccc(C(=O)Oc4ccc(C(=O)O)cc4)cc32)cc1 [Compound 39]: rule not met
- Cc1cc(C)cc(C2=CCC(C)(C)c3ccc(C#Cc4ccc(C(=O)O)cc4)cc32)c1 [Compound 24]: rule not met
- COc1ccc(C2=CCC(C)(C)c3ccc(C#Cc4ccc(C(=O)O)cc4)cc32)cc1 [Compound 22]: rule met
- Cc1ccc(C2=CCC(C)(C)c3ccc(C#Cc4ccc(C(=O)O)cc4)cc32)s1 [Compound 34]: rule not met
- CC1(C)CC=C(c2ccc(C(F)(F)F)cc2)c2cc(C#Cc3ccc(C(=O)O)cc3)ccc21 [Compound 23]: rule not met
- CC1(C)CC=C(c2ccc(Cl)cc2)c2cc(C#Cc3ccc(C(=O)O)cc3)ccc21 [Compound 25]: rule met
- Cc1ccc(C2=CCC(C)(C)c3ccc(/C=C/c4ccc(C(=O)O)cc4)cc32)cc1 [Compound 45]: rule met
